# experimentalSystem: CDK-2/Cyclin A (Homo sapiens, UniProt P24941)
# protocolNotes: CDK-2 inhibition assay (coupled enzyme assay)
# experimentalConditions: 25 nM CDK-2/Cyclin A, 30° C.
readoutName: Ki

Reference set, count: 3
smilesentry=CC(=O)Nc1ccc(Sc2nc(Nc3cc(C)[nH]n3)c3ccccc3n2)cc1 datavalue="1000 to 20000 nM"
smilesentry=CC(=O)Nc1ccc(Sc2nc(Nc3cc(C4CC4)[nH]n3)c3ccccc3n2)cc1 datavalue="< 1000 nM"
smilesentry=Cc1cccc(Sc2nc(Nc3cc(C)[nH]n3)c3ccccc3n2)c1 datavalue="< 1000 nM"

Please state Ki for every compound in the list that follows.
1. Cc1cc(Nc2nc(Nc3ccc4ncsc4c3)nc3ccccc23)n[nH]1
2. OCCc1ccc(Nc2nc(Nc3cc(C4CC4)[nH]n3)c3ccccc3n2)cc1
3. Cc1cc(Nc2nc(Nc3ccc(CC#N)cc3)nc3ccccc23)n[nH]1

Response line:
< 1000 nM
< 1000 nM
< 1000 nM

Please state Ki for every compound in the list that follows.
1. CCc1ccc(Nc2nc(Nc3cc(C4CC4)[nH]n3)c3ccccc3n2)cc1
2. CC(=O)Nc1ccc(Sc2nc(Nc3cc(C)[nH]n3)c3cccc(O)c3n2)cc1
3. COc1cccc2c(Nc3cc(C)n[nH]3)nc(Sc3ccc(NC(C)=O)cc3)nc12

Response line:
1: < 1000 nM; 2: 1000 to 20000 nM; 3: 1000 to 20000 nM

---

Answer each item with its documented pKi.
# experimentalSystem: CDK-2/Cyclin A (Homo sapiens)
# protocolNotes: CDK-2 inhibition assay (coupled enzyme assay)
# experimentalConditions: 25 nM CDK-2/Cyclin A, 30° C.
pKi: −log10 of the molar value.

smilesentry=N#CCc1ccc(Nc2nc(Nc3cc(C4CC4)[nH]n3)cc(-c3ccccc3)n2)cc1 experimentalsystem="CDK-2/Cyclin A (Homo sapiens)" datavalue="> 6.00"
smilesentry=CCCS(=O)(=O)Nc1ccc(Sc2nc(Nc3cc(C)n[nH]3)c3ccccc3n2)cc1 experimentalsystem="CDK-2/Cyclin A (Homo sapiens)" datavalue="4.70 to 6.00"

// switching to the query compound
Prompt line: Return value of pKi for input "c1ccc2c(Nc3cc(C4CC4)[nH]n3)nc(Nc3ccc4ncsc4c3)nc2c1" , no commentary.
Response line: > 6.00

---

# experimentalSystem: human Src kinase (Homo sapiens)
# Construct: full length recombinant human Src kinase (from Upstate Biotechnology, cat. no. 14-117); purchased Upstate Biotechnology 14-117; host or cells: baculo viral cells
# Sequence (P12931 whole entry): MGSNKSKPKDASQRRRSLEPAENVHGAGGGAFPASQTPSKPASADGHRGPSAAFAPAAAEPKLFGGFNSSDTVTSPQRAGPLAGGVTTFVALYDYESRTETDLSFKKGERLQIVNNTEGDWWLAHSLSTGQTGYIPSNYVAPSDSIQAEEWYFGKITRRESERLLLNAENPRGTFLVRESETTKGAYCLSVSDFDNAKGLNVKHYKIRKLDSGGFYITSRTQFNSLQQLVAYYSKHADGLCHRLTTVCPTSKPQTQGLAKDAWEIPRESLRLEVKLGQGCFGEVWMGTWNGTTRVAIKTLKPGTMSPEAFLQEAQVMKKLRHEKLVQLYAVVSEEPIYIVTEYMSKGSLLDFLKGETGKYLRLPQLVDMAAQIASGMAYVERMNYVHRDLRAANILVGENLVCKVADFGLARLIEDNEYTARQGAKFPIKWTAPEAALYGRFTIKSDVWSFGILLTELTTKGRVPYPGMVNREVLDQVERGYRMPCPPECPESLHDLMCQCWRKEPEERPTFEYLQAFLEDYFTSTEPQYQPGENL
# protocolNotes: SRC inhibition assay (radioactivity-based or spectrophotometric assay)
# Format: biochemical
# experimentalConditions: recombinant human Src kinase; assay A or B; read-out: Ki value on SRC
readoutName: Ki

Reference set, count: 10
smilesentry=Cc1ccc(Sc2nc(Nc3cc(C4CC4)[nH]n3)c3ccccc3n2)cc1C readoutname=Ki datavalue="< 100 nM"
smilesentry=Cc1cccc(Oc2nc(Nc3cc(C4CC4)[nH]n3)c3ccccc3n2)c1 readoutname=Ki datavalue="< 100 nM"
smilesentry=Cc1cc(Nc2nc(NCc3ccc(F)cc3)nc3ccccc23)n[nH]1 readoutname=Ki datavalue="< 100 nM"
smilesentry=Clc1cccc(Sc2nc(Nc3cc(C4CC4)[nH]n3)c3ccccc3n2)c1 readoutname=Ki datavalue="< 100 nM"
smilesentry=COC(=O)c1cccc(Nc2nc(Nc3cc(C4CC4)[nH]n3)c3ccccc3n2)c1 readoutname=Ki datavalue="< 100 nM"
smilesentry=c1ccc2cc(Sc3nc(Nc4cc(C5CC5)[nH]n4)c4ccccc4n3)ccc2c1 readoutname=Ki datavalue="< 100 nM"
smilesentry=c1cncc(CNc2nc(Nc3cc(C4CC4)[nH]n3)c3ccccc3n2)c1 readoutname=Ki datavalue="< 100 nM"
smilesentry=c1csc(CNc2nc(Nc3cc(C4CC4)[nH]n3)c3ccccc3n2)c1 readoutname=Ki datavalue="< 100 nM"
smilesentry=CCc1cccc(Nc2nc(Nc3cc(C4CC4)[nH]n3)c3ccccc3n2)c1 readoutname=Ki datavalue="< 100 nM"
smilesentry=Cc1cc(Nc2nc(NCC3CCCCC3)nc3ccccc23)n[nH]1 readoutname=Ki datavalue="< 100 nM"

Please state Ki for every compound in the list that follows.
1. c1ccc2c(Nc3cc(C4CC4)[nH]n3)nc(Nc3ccc4cc[nH]c4c3)nc2c1
2. Cc1cc(Nc2nc(NCc3cccnc3)nc3ccccc23)n[nH]1
3. Cc1ccc(Cl)c(Nc2nc(Nc3cc(C)[nH]n3)c3ccccc3n2)c1
4. Fc1ccc(Sc2nc(Nc3cc(C4CC4)[nH]n3)c3ccccc3n2)c(F)c1
5. Clc1ccccc1Sc1nc(Nc2cc(C3CC3)[nH]n2)c2ccccc2n1
6. CC(=O)Nc1ccc(Nc2nc(Nc3cc(C4CC4)[nH]n3)c3ccccc3n2)cc1C
7. COc1ccc(Nc2nc(Nc3cc(C4CC4)[nH]n3)c3ccccc3n2)cc1OC
8. c1ccc2c(Nc3cc(C4CC4)[nH]n3)nc(Nc3ccc4ncsc4c3)nc2c1

Response line:
1: < 100 nM; 2: < 100 nM; 3: < 100 nM; 4: < 100 nM; 5: < 100 nM; 6: < 100 nM; 7: < 100 nM; 8: < 100 nM

Please state Ki for every compound in the list that follows.
1. COc1cccc(Sc2nc(Nc3cc(C4CC4)[nH]n3)c3ccccc3n2)c1
2. c1ccc(Sc2nc(Nc3cc(C4CC4)[nH]n3)c3ccccc3n2)cc1
3. c1ccc2c(Nc3cc(C4CC4)[nH]n3)nc(Oc3ccc4c(c3)CCCC4)nc2c1

Response line:
["< 100 nM", "< 100 nM", "< 100 nM"]

Please state Ki for every compound in the list that follows.
1. Cc1cccc(Nc2nc(Nc3cc(C4CC4)[nH]n3)c3ccccc3n2)c1C
2. N#CCc1ccc(Nc2nc(Nc3cc(C4CC4)[nH]n3)c3ccccc3n2)cc1
3. c1ccc(COCc2nc(Nc3cc(C4CC4)[nH]n3)c3ccccc3n2)cc1
4. CN(Cc1cccnc1)c1nc(Nc2cc(C3CC3)[nH]n2)c2ccccc2n1
5. Cc1cc(Nc2nc(Nc3cc(C4CC4)[nH]n3)c3ccccc3n2)ccc1Cl
6. Clc1cccc(Sc2nc(Nc3cc(C4CC4)[nH]n3)c3ccccc3n2)c1Cl
7. Cc1cccc(Nc2nc(Nc3cc(C4CC4)[nH]n3)c3ccccc3n2)c1

Response line:
1. < 100 nM
2. < 100 nM
3. < 100 nM
4. < 100 nM
5. < 100 nM
6. < 100 nM
7. < 100 nM

Please state Ki for every compound in the list that follows.
1. c1ccc(-c2cc(Nc3cc(C4CC4)[nH]n3)nc(Sc3ccc4ccccc4c3)n2)cc1
2. c1ccc(OCCNc2nc(Nc3cc(C4CC4)[nH]n3)c3ccccc3n2)cc1
3. c1ccc(OCc2nc(Nc3cc(C4CC4)[nH]n3)c3ccccc3n2)cc1
4. c1ccc2cc(Oc3nc(Nc4cc(C5CC5)[nH]n4)c4ccccc4n3)ccc2c1
5. Cc1ccc(Nc2nc(Nc3cc(C4CC4)[nH]n3)c3ccccc3n2)cc1C
6. Cc1cc(Nc2nc(Nc3ccc(CC#N)cc3)nc3ccccc23)n[nH]1

Response line:
1: < 100 nM; 2: < 100 nM; 3: < 100 nM; 4: < 100 nM; 5: < 100 nM; 6: < 100 nM

All figures here come from patent US6653300B2.
